# maps each entry to its protein stability index
B1: ZNF649 (parent)
chain: DECEKAYFYMSCLVKHKRIHSREK

Variants of: B1
Assay: protein stability index of a GFP-peptide fusion (GPS, HEK-293T) (PSI 1-6); higher = more stable;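 further: lentivirally expressed fusions sorted by FACS into six bins by GFP to DsRed ratio, PSI derived from sequencing read proportions per bin multiplied by bin number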
Settings: c terminus: a fixed tail appended
Observed Property: protein stability index

Query Sequence	Quantitative Result
DECEKAYFYMSCLMKHKRIHSREK [V14M]	2.18
DECEKAYFYMSCQVKHKRIHSREK [L13Q]	2.99
DECEKAYFYMSCLVKHKRIHWREK [S21W]	1.61
DECCKAYFYMSCLVKHKRIHSREK [E4C]	2.01
DECEKAYFYMSCLVKHKTIHSREK [R18T]	2.61
DECEKAYFYMSCLVKHKRIKSREK [H20K]	2.6
LECEKAYFYMSCLVKHKRIHSREK [D1L]	1.98
DECEKSYFYMSCLVKHKRIHSREK [A6S]	3.04
DECEKAYQYMSCLVKHKRIHSREK [F8Q]	3.75
DECEKAYFYMSCLVKHFRIHSREK [K17F]	2.83
DECTKAYFYMSCLVKHKRIHSREK [E4T]	2.88
DECEKAYFYMSCLVKHKRIHSREM [K24M]	1.97
DECEKAYFYMSCLVKHKRIHSREG [K24G]	2.31
DECEKAYFWMSCLVKHKRIHSREK [Y9W]	3.49
DECEKALFYMSCLVKHKRIHSREK [Y7L]	2.26
DECYKAYFYMSCLVKHKRIHSREK [E4Y]	2.01
DECEKAYFYMSCLVKHKRNHSREK [I19N]	2.97
DECEKAYFYMSCLVKYKRIHSREK [H16Y]	2.11
DECEKAYFYMSCLVKHKCIHSREK [R18C]	2.32
DECEKAYFYMSCLVKEKRIHSREK [H16E]	3.53
DECEKAYFYMSCLVKHPRIHSREK [K17P]	2.35
DECEKAYFLMSCLVKHKRIHSREK [Y9L]	2.35
